Listed here: items and their measured Tm.
- assay_info: Circular dichroism spectroscopy analysis (CD spectra, variable temperature measurement, refolding)
- Type: physicochemical
- reported_conditions: Table 9, mutation study 5; MGSSHHHHHHGSS-[Y#####]-A
// units = °C; emit number, no label

Field: example entries. Status: answers known.
[[record]]
substance = "Y02693: C4 binding Y variant, Y02330 with K15Y Q26E, SEQ ID NO:48 (LAEAKEAAIAELDSYGVGAELIKKIEHAESVEGVQFWKQEILAYLPA; Engineered C4 binding Y variant)"
experimental_result = 52

[[record]]
substance = "Y02714: insulin binding Y variant, Y00310 with Q26E, SEQ ID NO:154 (LAEAKEAAIAELDSKGVGAYQIKFIEIAHTVEEVQLMKQAILADLPA; Engineered insulin binding Y variant)"
experimental_result = 53


From here, focus on the item given below.
Could you share which Tm value was measured for Y02717: insulin binding Y variant, Y00310 with K15Y Q26E, SEQ ID NO:157 (LAEAKEAAIAELDSYGVGAYQIKFIEIAHTVEEVQLMKQAILADLPA; Engineered insulin binding Y variant) ?
52
